# Subject of test: T1, mouse PD-L1 on CHO cells that stably expressed mouse PD-L1 (mouse, UniProt Q9EP73 19-290)
# T1 construct: whole, on cells; also called CHO cells expressing mouse PD-L1
# Procedure summary: flow cytometry on CHO cells stably expressing mouse PD-L1, anti-human IgG-Fc DyLight 650 detection
Property measured: EC50 (read off the curve)

PD-L1 antibody YN-037 (antibody, human IgG1, lambda, V domains shown, full-length IgG1,lambda) VH: QVQLVQSGAEVKKPGSSVKVSCKASRGPFSTYAISWVRQAPGQGLEWMGRIIPILGIANYAQKFQGRVTITADKSTSTAYMELSSLRSEDTAVYYCARTMGEYSYGNYDYWGQGTLVTVSS VL: QSALTQPASVSGSPGQSITISCTGTSSSVGGYREVSWYQQHPGKAPKLMIYENSIRPSGVSHRFSGSKSGNTASLTISGLQAEDEADYYCQSYDSSLSGTVFGGGTKLTVLG	~6 nM

Task: Please look up its EC50 (read off the curve): PD-L1 antibody YN-035 (antibody, human IgG1, lambda, V domains shown, full-length IgG1,lambda) VH: QVQLVQSGAEVKKPGSSVKVSCKASRGPFSTYAISWVRQAPGQGLEWMGRIIPILGIANYAQKFQGRVTITADKSTSTAYMELSSLRSEDTAVYYCARTMEGYGFGNFDYWGQGTLVTVSS VL: QSALTQPASVSGSPGQSITISCTGTVSEVGGYNEVSWYQQHPGKAPKLMIYGNSNRPSGVSNRFSGSKSGNTASLTISGLQAEDEADYYCQSYDSSLSGTVFGGGTKLTVLG
Result: ~6 nM

Hello, the source for this data is patent US20210261677A1, in case you need it.
